# ASSAY_TARGET: Torsin-1A-interacting protein 1 (Homo sapiens) (UniProt Q5JTV8)
# Sequence (Q5JTV8 whole entry, looked up): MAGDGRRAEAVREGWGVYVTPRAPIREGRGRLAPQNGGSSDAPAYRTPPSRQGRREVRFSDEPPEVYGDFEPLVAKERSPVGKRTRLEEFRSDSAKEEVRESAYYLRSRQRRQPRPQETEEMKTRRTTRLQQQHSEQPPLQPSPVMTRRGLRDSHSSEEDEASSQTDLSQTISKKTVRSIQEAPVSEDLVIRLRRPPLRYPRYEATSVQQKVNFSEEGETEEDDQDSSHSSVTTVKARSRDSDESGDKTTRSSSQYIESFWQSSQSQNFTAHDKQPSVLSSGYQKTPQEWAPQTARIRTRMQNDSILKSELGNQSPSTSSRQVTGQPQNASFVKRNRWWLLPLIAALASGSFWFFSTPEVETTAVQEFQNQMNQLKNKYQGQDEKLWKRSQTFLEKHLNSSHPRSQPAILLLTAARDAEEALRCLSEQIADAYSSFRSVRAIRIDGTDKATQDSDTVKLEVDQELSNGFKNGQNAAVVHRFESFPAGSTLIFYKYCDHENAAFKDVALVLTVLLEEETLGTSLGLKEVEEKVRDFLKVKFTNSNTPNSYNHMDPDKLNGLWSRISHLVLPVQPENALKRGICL
# METHOD: LAP1 binders from COS7 cell lysate, primary screen, small-molecule microarray, 635/667 nm fluorescence (AID 1116)
# CONDITION_SUMMARY: COS7-hLAP1 lysate binding, 635 nm fluorescence, higher = more signal
READOUT_LABEL: composite z-score

{"COMPOUND": "CC(C)C[C@@H]1NC(=O)[C@@H]2C[C@H](C(=O)NCCCC[N+](C)(C)C)[C@H](c3ccc(O)cc3)N2C1=O", "RESULT": 1.24}
{"COMPOUND": "C[C@H]1C2[C@H](Cc3ccccc3)NC(=O)[C@]23C(=O)NCC(=O)N2CCC[C@H]2C(=O)NC/C=C\\C/C=C/C3[C@@H]2O[C@]12C (stereo not given in full)", "RESULT": -0.177}
{"COMPOUND": "C=CCC(OC(C)=O)[C@@H]1[C@@H](N(Cc2ccc(-c3cccc(C(F)(F)F)c3)o2)C(=O)Cc2ccc(F)cc2)c2cc(OCCCO)ccc2N1C(=O)c1ccc2ccccc2c1 (stereo not given in full)", "RESULT": 0.0175}
{"COMPOUND": "COCCCNC(=O)[C@@]1(Sc2ccc(C)cc2)CC(=O)N(C2CCCCC2)[C@@H]1c1ccc(CO)cc1I", "RESULT": 1.34}
{"COMPOUND": "COC(=O)[C@H](Cc1ccc(O)cc1)N1CC2=CCCC=C[C@@H]2[C@H]1[C@H](O)Cc1ccccc1", "RESULT": 0.0548}
{"COMPOUND": "O=C1OCCC=C[C@H]2OC34C=CCN(c5ccc(Cl)cc5)C(=O)[C@H]3N(CCO)C(=O)[C@@H]4C12 (stereo not given in full)", "RESULT": -0.855}
{"COMPOUND": "CC(=O)n1cc(C(O)C2C=CC3C(=O)N(c4ccccc4)C(=O)C3N2Nc2ccccc2F)c2ccccc21 (stereo not given)", "RESULT": 0.488}
{"COMPOUND": "CC[C@H](C)C(=O)O[C@H]1CC[C@]2(C)C3=C(CCC2C1(C)C)[C@]1(C)CC[C@H]([C@H](C)CCCC(C)C)[C@@]1(C)CC3 (stereo not given in full)", "RESULT": 0.14}
{"COMPOUND": "NC(=O)NCC#Cc1ccc2c(c1)[C@]1(C(=O)N2)[C@H](C(=O)N2CCCCCCC2)[C@H]2C(=O)O[C@H](c3ccccc3)[C@H](c3ccccc3)N2[C@@H]1c1ccc(O)cc1", "RESULT": 2.19}
{"COMPOUND": "COc1ccccc1CN1C(=O)c2ccccc2[C@@H](C(=O)NCCCN(C)C)[C@@H]1c1ccc(CO)cc1", "RESULT": 0.55}
{"COMPOUND": "CC=CC(O)C1C=CC2C(=O)N(C)C(=O)C2N1NC(=O)OC(C)(C)C (stereo not given)", "RESULT": 0.512}
{"COMPOUND": "CCC[C@@H]1[C@@H](Sc2ccccc2)[C@@H](C(=O)O)[C@H](c2ccc(C)cc2)N1S(=O)(=O)c1ccc(C)cc1", "RESULT": 0.425}
{"COMPOUND": "[N-]=[N+]=NCc1ccccc1C[C@]1(C(=O)O)COC(c2ccc(OCCCO)cc2)=N1", "RESULT": -1.24}
{"COMPOUND": "CCCCC(=C=CC[C@@H](O)c1cccc(OCCO)c1)CCO", "RESULT": 0.297}
{"COMPOUND": "COCCOC(=O)N1C(=O)[C@@]2(c3ccccc31)[C@H](c1ccc(OCCO)cc1)N1[C@H](c3ccccc3)[C@H](c3ccccc3)OC(=O)[C@H]1[C@@H]2C(=O)N1CCN(c2ncccn2)CC1", "RESULT": 1.5}

Recorded values, source PubChem BioAssay.
